TARGET OR SYSTEM: TXK (Homo sapiens)
Construct: made in house; host or cells: HEK293 (transient transfection), unpurified extract
Sequence (P42681 whole entry): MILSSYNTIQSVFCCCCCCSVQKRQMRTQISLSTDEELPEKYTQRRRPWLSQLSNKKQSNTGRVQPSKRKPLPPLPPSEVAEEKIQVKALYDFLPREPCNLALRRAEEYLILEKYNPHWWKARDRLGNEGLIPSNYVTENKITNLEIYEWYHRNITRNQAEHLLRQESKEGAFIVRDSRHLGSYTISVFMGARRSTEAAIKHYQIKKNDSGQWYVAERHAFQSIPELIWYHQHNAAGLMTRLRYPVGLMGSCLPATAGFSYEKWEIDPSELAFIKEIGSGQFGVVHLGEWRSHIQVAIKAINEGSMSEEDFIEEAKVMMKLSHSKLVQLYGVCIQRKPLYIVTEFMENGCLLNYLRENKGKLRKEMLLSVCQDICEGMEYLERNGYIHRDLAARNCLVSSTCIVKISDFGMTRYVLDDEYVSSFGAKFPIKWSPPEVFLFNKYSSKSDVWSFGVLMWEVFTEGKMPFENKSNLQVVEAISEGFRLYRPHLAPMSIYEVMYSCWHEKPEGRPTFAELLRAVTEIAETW
EXPERIMENTAL DETAILS: biochemical
Type: binding
CONDITION SET: read-out: percent of DMSO vehicle control
Non-standard residues stand in square brackets, D forms with d. Residues, ends and D or L forms follow the SMILES beside them. *: point of attachment. pY = N[C@@H](Cc1ccc(OP(=O)(O)O)cc1)C(=O)O; Caffeoyl = O=C(/C=C/c1ccc(O)c(O)c1)*
Listed below: remaining activity at 10 µM values for each entry.
Write the quantity with the unit trailing the number.

# COMPOUND, remaining activity at 10 µM
measured = [
    ("CC(=O)N1CC[C@H]2CC[C@@H](C(=O)N[C@@H](CCC(N)=O)C(=O)NC(c3ccccc3)c3ccccc3)N2C(=O)[C@@H](NC(=O)c2cc3cc(C(F)(F)P(=O)(O)O)ccc3[nH]2)C1", "118%"),
    ("CC[C@H](C)[C@H](NC(=O)[C@H](CCC(=O)O)NC(=O)[C@H](CCC(=O)O)NC(=O)[C@H](Cc1ccc(OP(=O)(O)O)cc1)NC(=O)/C=C/c1ccc(O)c(O)c1)C(=O)N[C@@H](CCC(=O)O)C(=O)O [Caffeic acid-pYEEIE] (Caffeoyl-[pY]EEIE-OH)", "2.7%"),
    ("NC(=O)CC[C@H](NC(=O)[C@@H]1CC[C@@H]2CCN(C(=O)CCCCCC#Cc3cccc4c3CN(C3CCC(=O)NC3=O)C4=O)C[C@H](NC(=O)c3cc4cc(C(F)(F)P(=O)(O)O)ccc4[nH]3)C(=O)N21)C(=O)NC(c1ccccc1)c1ccccc1 (stereo partly shown)", "101%"),
]

Continue with the next compound.
# return recorded remaining activity at 10 µM for entry CC(=O)N[C@@H](Cc1ccc(CP(=O)(O)O)cc1)C(=O)NC1(C(=O)N[C@@H](CC(N)=O)C(=O)NCCCc2c(O)ccc3ccccc23)CCCCC1
74.4%

###

TARGET OR SYSTEM: SOCS1 (Homo sapiens)
Construct: made in house; host or cells: HEK293 (transient transfection), unpurified extract
Sequence (O15524 whole entry): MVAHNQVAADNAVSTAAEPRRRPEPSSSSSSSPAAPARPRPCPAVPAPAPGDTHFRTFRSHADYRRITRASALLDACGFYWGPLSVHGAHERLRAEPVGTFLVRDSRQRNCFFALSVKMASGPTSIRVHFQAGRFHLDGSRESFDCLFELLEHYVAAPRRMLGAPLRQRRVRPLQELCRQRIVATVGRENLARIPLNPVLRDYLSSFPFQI
EXPERIMENTAL DETAILS: biochemical
Assay type: binding
CONDITION SET: read-out: percent of DMSO vehicle control
Non-standard residues stand in square brackets, D forms with d. Residues, ends and D or L forms follow the SMILES beside them. *: point of attachment. pY = N[C@@H](Cc1ccc(OP(=O)(O)O)cc1)C(=O)O; Caffeoyl = O=C(/C=C/c1ccc(O)c(O)c1)*
VALUE KIND: remaining activity at 10 µM (%)
Write the number in % without appending the unit.

Example cases with answers are listed next.
# COMPOUND, OBSERVED RESULT
measured = [
    ("CC(=O)N[C@@H](Cc1ccc(CP(=O)(O)O)cc1)C(=O)NC1(C(=O)N[C@@H](CC(N)=O)C(=O)NCCCc2c(O)ccc3ccccc23)CCCCC1", 129),
    ("NC(=O)CC[C@H](NC(=O)[C@@H]1CC[C@@H]2CCN(C(=O)CCCCCC#Cc3cccc4c3CN(C3CCC(=O)NC3=O)C4=O)C[C@H](NC(=O)c3cc4cc(C(F)(F)P(=O)(O)O)ccc4[nH]3)C(=O)N21)C(=O)NC(c1ccccc1)c1ccccc1 (stereo partly shown)", 132),
    ("CC(=O)N1CC[C@H]2CC[C@@H](C(=O)N[C@@H](CCC(N)=O)C(=O)NC(c3ccccc3)c3ccccc3)N2C(=O)[C@@H](NC(=O)c2cc3cc(C(F)(F)P(=O)(O)O)ccc3[nH]2)C1", 103),
]

Continue with the next compound.
# return recorded remaining activity at 10 µM for entry CC[C@H](C)[C@H](NC(=O)[C@H](CCC(=O)O)NC(=O)[C@H](CCC(=O)O)NC(=O)[C@H](Cc1ccc(OP(=O)(O)O)cc1)NC(=O)/C=C/c1ccc(O)c(O)c1)C(=O)N[C@@H](CCC(=O)O)C(=O)O [Caffeic acid-pYEEIE] (Caffeoyl-[pY]EEIE-OH)
1.1
